Tested on: Staphylococcus aureus
Assay: Antimicrobial activity against Staphylococcus aureus CIP 4.83 after 18 to 24 hrs by broth microdilution method
Type: functional
measured-quantity: MBC

**Query** Name the recorded MBC of the molecule listed here: O=C(O)c1cn(C2CC2)c2cc(N3CCN(C(=O)COCc4ccccc4)CC3)c(F)cc2c1=O
**Result** ≤ 0.24 µM

**Query** Provide one value: measured MBC of C[C@H]1COc2c(N3CCN(C)CC3)c(F)cc3c(=O)c(C(=O)NCCCCCCCCCCNC(=O)c4cn5c6c(c(N7CCN(C)CC7)c(F)cc6c4=O)OC[C@@H]5C)cn1c23
**Result** 7.8 µM

**Query** Using known records, supply MBC for CCCC(=O)OCC(=O)N1CCN(c2cc3c(cc2F)c(=O)c(C(=O)O)cn3C2CC2)CC1
**Result** ≤ 0.48 µM

**Query** Tell me MBC reported for CCCCOC(=O)N1CCN(c2cc3c(cc2F)c(=O)c(C(=O)O)cn3C2CC2)CC1
**Result** ≤ 0.12 µM

----------
Please go through the items and note down their MIC.
Test system: Staphylococcus aureus
Assay: Antimicrobial activity against multidrug-resistant Staphylococcus aureus isolate 1 after 18 to 24 hrs by broth microdilution method
Type: functional
Please reply with the bare figure in µM and do not write the unit itself.

**Query** # return recorded MIC for input O=C(CCCCCCCCCCCCCCC(=O)OCN1CCN(c2cc3c(cc2F)c(=O)c(C(=O)O)cn3C2CC2)CC1)OCN1CCN(c2cc3c(cc2F)c(=O)c(C(=O)O)cn3C2CC2)CC1
**Result** 125

**Query** Identify MIC associated with the compound CCCCOC(=O)N1CCN(c2cc3c(cc2F)c(=O)c(C(=O)O)cn3C2CC2)CC1
**Result** 62.5

**Query** Dear colleague, please send me the reported MIC for CC(=O)N1CCN(c2cc3c(cc2F)c(=O)c(C(=O)O)cn3C2CC2)CC1 when you can.
**Result** 62.5

**Query** Return reported MIC. Input compound: CCCCCC(=O)OCC(=O)N1CCN(c2cc3c(cc2F)c(=O)c(C(=O)O)cn3C2CC2)CC1
**Result** 15.6

----------
Tested on: Enterococcus hirae
Assay: Antimicrobial activity against Enterococcus hirae CIP 5855 after 18 to 24 hrs by broth microdilution method
Assay type: functional
Assign MBC to each entry below.
Reply with just the number (in µM).

**Query** Kindly indicate its recorded MBC. Item: CCCCCCCCOC(=O)N1CCN(c2cc3c(cc2F)c(=O)c(C(=O)O)cn3C2CC2)CC1
**Result** 125

**Query** Let me know recorded MBC for O=C(O)c1cn(C2CC2)c2cc(N3CCN(C(=O)CCCCCCCCC(=O)N4CCN(c5cc6c(cc5F)c(=O)c(C(=O)O)cn6C5CC5)CC4)CC3)c(F)cc2c1=O , thanks.
**Result** 250

**Query** Using known records, supply MBC for CCCCC(=O)N1CCN(c2cc3c(cc2F)c(=O)c(C(=O)O)cn3C2CC2)CC1
**Result** 7.8

**Query** Please give the documented MBC of CC(=O)N1CCN(c2cc3c(cc2F)c(=O)c(C(=O)O)cn3C2CC2)CC1
**Result** 7.8

**Query** Please look at this molecule and report its MBC: O=C(CCCCCCCCCCCCC(=O)OCN1CCN(c2cc3c(cc2F)c(=O)c(C(=O)O)cn3C2CC2)CC1)OCN1CCN(c2cc3c(cc2F)c(=O)c(C(=O)O)cn3C2CC2)CC1
**Result** 15.6

**Query** Give the value of MBC reported for the following: O=C(CCCCCCCCCCCCCC(=O)OCN1CCN(c2cc3c(cc2F)c(=O)c(C(=O)O)cn3C2CC2)CC1)OCN1CCN(c2cc3c(cc2F)c(=O)c(C(=O)O)cn3C2CC2)CC1
**Result** 15.6

**Query** Provide only the value of recorded MBC for O=C(O)c1cn(C2CC2)c2cc(N3CCN(C(=O)CCCCCCCCCCCCCCC(=O)N4CCN(c5cc6c(cc5F)c(=O)c(C(=O)O)cn6C5CC5)CC4)CC3)c(F)cc2c1=O
**Result** 500

**Query** // fetch MBC given entry C[C@H]1COc2c(N3CCN(C)CC3)c(F)cc3c(=O)c(C(=O)NCCCCCCCCNC(=O)c4cn5c6c(c(N7CCN(C)CC7)c(F)cc6c4=O)OC[C@@H]5C)cn1c23
**Result** 125

**Query** Please give the documented MBC of CCCCCCCCCCCCCCCNC(=O)c1cn2c3c(c(N4CCN(C)CC4)c(F)cc3c1=O)OC[C@@H]2C
**Result** 7.8

**Query** Provide measured MBC value, entry: O=C(O)c1cn(C2CC2)c2cc(N3CCN(C(=O)CCCCCCCCCCCCC(=O)N4CCN(c5cc6c(cc5F)c(=O)c(C(=O)O)cn6C5CC5)CC4)CC3)c(F)cc2c1=O
**Result** 500

**Query** Tell us which MBC value is on record for CCCCCCCCCCOC(=O)N1CCN(c2cc3c(cc2F)c(=O)c(C(=O)O)cn3C2CC2)CC1
**Result** 500

**Query** Quote MBC reported for C[C@H]1COc2c(N3CCN(C)CC3)c(F)cc3c(=O)c(C(=O)NCCCCCCCCCCCCNC(=O)c4cn5c6c(c(N7CCN(C)CC7)c(F)cc6c4=O)OC[C@@H]5C)cn1c23 please.
**Result** 3.9

**Query** Given the molecule C[C@H]1COc2c(N3CCN(C)CC3)c(F)cc3c(=O)c(C(=O)NCCCCCCNC(=O)c4cn5c6c(c(N7CCN(C)CC7)c(F)cc6c4=O)OC[C@@H]5C)cn1c23 , write its reported MBC.
**Result** 125

**Query** # return recorded MBC for input CCCCCCCCCC(=O)OCC(=O)N1CCN(c2cc3c(cc2F)c(=O)c(C(=O)O)cn3C2CC2)CC1
**Result** 15.6

**Query** In one line, give reported MBC of the entry O=C(O)c1cn(C2CC2)c2cc(N3CCNCC3)c(F)cc2c1=O [CIPROFLOXACIN] .
**Result** 1.9

**Query** Output MBC of CC(C)(C)OC(=O)N1CCN(c2cc3c(cc2F)c(=O)c(C(=O)O)cn3C2CC2)CC1
**Result** 15.6

**Query** Hello, please tell me recorded MBC for this one: O=C(CCCCCCCCCCCCCCCCC(=O)OCN1CCN(c2cc3c(cc2F)c(=O)c(C(=O)O)cn3C2CC2)CC1)OCN1CCN(c2cc3c(cc2F)c(=O)c(C(=O)O)cn3C2CC2)CC1
**Result** 125

**Query** Report measured MBC; entry is CCCCCCCCCOC(=O)N1CCN(c2cc3c(cc2F)c(=O)c(C(=O)O)cn3C2CC2)CC1
**Result** 250

**Query** // fetch MBC given entry CC(C)(C)C(=O)N1CCN(c2cc3c(cc2F)c(=O)c(C(=O)O)cn3C2CC2)CC1
**Result** 7.8

**Query** Give me measured MBC, please, for this molecule: CCCCCCCCCCCC(=O)OCOC(=O)c1cn2c3c(c(N4CCN(C)CC4)c(F)cc3c1=O)OC[C@@H]2C
**Result** 1.9

**Query** Quick one: give measured MBC for O=C(O)c1cn(C2CC2)c2cc(N3CCN(C(=O)CCl)CC3)c(F)cc2c1=O
**Result** 3.9

**Query** Specify MBC for CCCCCCNC(=O)c1cn2c3c(c(N4CCN(C)CC4)c(F)cc3c1=O)OC[C@@H]2C and stop.
**Result** 250

**Query** In one line, give reported MBC of the entry CCCCOC(=O)N1CCN(c2cc3c(cc2F)c(=O)c(C(=O)O)cn3C2CC2)CC1 .
**Result** 7.8

**Query** # return recorded MBC for entry C[C@H]1COc2c(N3CCN(C)CC3)c(F)cc3c(=O)c(C(=O)NCCCCCCCCCNC(=O)c4cn5c6c(c(N7CCN(C)CC7)c(F)cc6c4=O)OC[C@@H]5C)cn1c23
**Result** 31.2

**Query** Find the measured MBC of CCCC(=O)N1CCN(c2cc3c(cc2F)c(=O)c(C(=O)O)cn3C2CC2)CC1 and report it.
**Result** 7.8

**Query** Dear colleague, please send me the reported MBC for CCCCCCC(=O)N1CCN(c2cc3c(cc2F)c(=O)c(C(=O)O)cn3C2CC2)CC1 when you can.
**Result** 31.2

**Query** Please look at this molecule and report its MBC: O=C(CCCCCCCCCCCCCCC(=O)OCN1CCN(c2cc3c(cc2F)c(=O)c(C(=O)O)cn3C2CC2)CC1)OCN1CCN(c2cc3c(cc2F)c(=O)c(C(=O)O)cn3C2CC2)CC1
**Result** 62.5

----------
Tested on: Enterococcus hirae
Test: Antimicrobial activity against Enterococcus hirae CIP 5855 after 18 to 24 hrs by broth microdilution method
Format: functional
Consider the cut-off 20 µM. If the recorded MBC is strictly smaller, the label is condition met; if not, the label is condition not met.

**Query** Is 20 µM strictly greater than the molecule's reported MBC? molecule: C[C@H]1COc2c(N3CCN(C)CC3)c(F)cc3c(=O)c(C(=O)O)cn1c23
**Result** condition met

**Query** Bench note: check whether CCCCCCCCCCCC(=O)OCC(=O)N1CCN(c2cc3c(cc2F)c(=O)c(C(=O)O)cn3C2CC2)CC1 shows MBC below 20 µM
**Result** condition met

**Query** I wonder whether CCC(=O)N1CCN(c2cc3c(cc2F)c(=O)c(C(=O)O)cn3C2CC2)CC1 has MBC below 20 µM. Can you tell?
**Result** condition met

**Query** I wonder whether CCCCCCCCCCCCCC(=O)OCOC(=O)c1cn2c3c(c(N4CCN(C)CC4)c(F)cc3c1=O)OC[C@@H]2C has MBC below 20 µM. Can you tell?
**Result** condition met

**Query** Is the reported MBC for O=C(O)c1cn(C2CC2)c2cc(N3CCN(C(=O)COCc4ccccc4)CC3)c(F)cc2c1=O strictly below 20 µM?
**Result** condition met

**Query** Does the reported MBC of the following molecule sit strictly below 20 µM? CCCCCCCCC(=O)N1CCN(c2cc3c(cc2F)c(=O)c(C(=O)O)cn3C2CC2)CC1
**Result** condition not met

**Query** Just wondering, is MBC of O=C(O)c1cn(C2CC2)c2cc(N3CCN(C(=O)Cc4ccccc4)CC3)c(F)cc2c1=O below 20 µM?
**Result** condition met

**Query** Threshold test, MBC < 20 µM: O=C(CCCCCCCCC(=O)OCN1CCN(c2cc3c(cc2F)c(=O)c(C(=O)O)cn3C2CC2)CC1)OCN1CCN(c2cc3c(cc2F)c(=O)c(C(=O)O)cn3C2CC2)CC1
**Result** condition not met

Ref: ChEMBL document CHEMBL1914411
